# EXPERIMENTAL SYSTEM: human CD3 on cells (human PBMC; Jurkat TCR/CD3 NFAT reporter cells) (human, UniProt P07766 23-207; P04234 22-171; P09693 23-182)
# Sequence (P07766 23-207, chain 1 of 3): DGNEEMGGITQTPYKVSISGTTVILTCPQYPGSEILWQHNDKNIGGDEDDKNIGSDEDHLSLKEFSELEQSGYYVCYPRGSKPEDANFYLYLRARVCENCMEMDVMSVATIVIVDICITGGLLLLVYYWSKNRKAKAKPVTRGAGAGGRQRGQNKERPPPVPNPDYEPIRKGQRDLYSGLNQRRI
# Sequence (P04234 22-171, chain 2 of 3): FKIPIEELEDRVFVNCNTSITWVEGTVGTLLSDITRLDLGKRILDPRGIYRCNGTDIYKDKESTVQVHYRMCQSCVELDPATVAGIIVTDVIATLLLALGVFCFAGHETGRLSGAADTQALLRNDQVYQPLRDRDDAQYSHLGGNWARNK
# Sequence (P09693 23-182, chain 3 of 3): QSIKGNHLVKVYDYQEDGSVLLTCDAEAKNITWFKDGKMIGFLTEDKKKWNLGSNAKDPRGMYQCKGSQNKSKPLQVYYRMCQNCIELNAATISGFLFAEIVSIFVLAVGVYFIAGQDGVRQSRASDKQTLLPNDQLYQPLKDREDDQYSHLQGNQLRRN
# TEST NAME: cell-based or functional assay
REPORTED ENDPOINT: CD3-NFAT Activity by CD3 mAb

binder="Hu153A6B1-15 (antibody, V domains shown, humanized mAb) VH: EVQLQESGPGLVKPSETLSLTCTVSGGSISSYNIHWVRQPPGKGLEWMGRIRYNGDTSYNSALKSRLTISRDTSKNQFSLKLSSVTAADTAVYYCARGPYGGSREPLFDYWGQGTMVTVSS VL: DIQMTQSPSSLSASVGDRVTITCKTSQNINKYLNWFQQKPGKAPKLLIYTTNNLQTGIPSRFSGSGSGTDFTLTISSLQPEDFATYFCLQHGSGYTFGQGTKLEIK" value_reported="> 50 % SP34"

**Query** Read the entry Hu192A7B9-4 (antibody, V domains shown, humanized mAb) VH: EVQLQESGPGLVKPSETLSLTCTVSGGSISSYNVHWVRQPPGKGLEWMGRMRYNGDTSYNSALKSRLTISRDTSKNQFSLKLSSVTAADTAVYYCTRGPRGGYYSALFDYWGQGTMVTVSS VL: DIQMTQSPSSLSASVGDRVTITCKASQNINRYLNWYQQKPGKAPKLLIYIANSLQTGVPSRFSGSGSGTDFTLTISSLQPEDFATYYCLQHNSWYTFGQGTKLEIK and write its reported CD3-NFAT Activity by CD3 mAb.
**Result** ≤ 50 % SP34
